TARGET_DESC: METTL14 (Homo sapiens, UniProt Q9HCE5)
Construct: Following treatment, total cellular proteins were extracted using RIPA buffer; endogenous in cells; host or cells: MV4-11 (MV4.11) human AML cells, ATCC
Sequence (Q9HCE5 whole entry): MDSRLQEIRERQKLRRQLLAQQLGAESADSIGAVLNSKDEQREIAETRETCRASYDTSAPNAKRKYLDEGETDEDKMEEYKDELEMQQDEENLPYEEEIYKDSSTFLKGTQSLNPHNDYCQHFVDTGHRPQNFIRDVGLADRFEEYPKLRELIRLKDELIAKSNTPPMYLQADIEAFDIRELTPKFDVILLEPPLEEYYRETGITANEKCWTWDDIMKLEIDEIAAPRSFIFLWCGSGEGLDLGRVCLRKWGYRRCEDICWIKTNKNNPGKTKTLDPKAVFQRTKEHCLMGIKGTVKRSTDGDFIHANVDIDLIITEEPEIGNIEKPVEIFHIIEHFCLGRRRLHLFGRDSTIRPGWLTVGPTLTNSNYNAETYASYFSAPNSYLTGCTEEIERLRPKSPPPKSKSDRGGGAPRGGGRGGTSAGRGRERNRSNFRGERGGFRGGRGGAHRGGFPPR
Sequence (Q86U44 2-580 partner): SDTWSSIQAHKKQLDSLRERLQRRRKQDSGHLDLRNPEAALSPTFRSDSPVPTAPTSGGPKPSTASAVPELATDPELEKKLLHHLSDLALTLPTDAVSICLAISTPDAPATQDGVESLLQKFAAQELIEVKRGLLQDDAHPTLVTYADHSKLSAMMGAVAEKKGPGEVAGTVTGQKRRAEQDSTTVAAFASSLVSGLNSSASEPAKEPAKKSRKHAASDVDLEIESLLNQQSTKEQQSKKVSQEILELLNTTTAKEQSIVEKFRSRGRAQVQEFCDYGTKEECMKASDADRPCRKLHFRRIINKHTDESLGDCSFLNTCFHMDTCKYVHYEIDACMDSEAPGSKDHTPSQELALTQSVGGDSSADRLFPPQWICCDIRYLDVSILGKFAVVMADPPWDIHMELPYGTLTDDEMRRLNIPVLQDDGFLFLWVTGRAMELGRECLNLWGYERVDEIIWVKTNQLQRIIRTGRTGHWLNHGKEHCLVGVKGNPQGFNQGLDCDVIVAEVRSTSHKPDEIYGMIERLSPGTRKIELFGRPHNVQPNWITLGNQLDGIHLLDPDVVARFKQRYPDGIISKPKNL
ASSAY_PROTOCOL: Immunoblotting (Western blot) degradation of METTL14 in MV4-11 cells
Format: cell-based
REPORTED_CONDITIONS: MV4-11 cells, 0.3 µM, 24 h, immunoblotting; nd = no degradation
MEASURED_PROPERTY: % reduction in MV4-11 cells, 0.3 µM, METTL14 (%)

Example results:
| COMPOUND | TARGET_DESC | REPORTED_MEASUREMENT |
| --- | --- | --- |
| CC1(C)CCN(Cc2cc(F)c(N3CC(=O)NC4(CCN(c5cc(NCCCCCCC(=O)N6CCN(c7ccc8c(c7)C(=O)N(C7CCC(=O)NC7=O)C8=O)CC6)ncn5)CC4)C3)cc2F)CC1 (centres unmarked) [Compound 4c] | METTL14 (Homo sapiens, UniProt Q9HCE5) | 46 |
| CC1(C)CCN(Cc2cc(F)c(N3CC(=O)NC4(CCN(c5cc(NCCCCCCCCC(=O)N6CCN(c7ccc8c(c7)CN(C7CCC(=O)NC7=O)C8=O)CC6)ncn5)CC4)C3)cc2F)CC1 (centres unmarked) [Compound 4i] | METTL14 (Homo sapiens, UniProt Q9HCE5) | 54 |

[a] CC1(C)CCN(Cc2cc(F)c(N3CC(=O)NC4(CCN(c5cc(NCCCCCCCCCC(=O)N6CCN(c7ccc8c(c7)CN(C7CCC(=O)NC7=O)C8=O)CC6)ncn5)CC4)C3)cc2F)CC1 (centres unmarked) [Compound 4j]
[b] CC1(C)CCN(Cc2cc(F)c(N3CC(=O)NC4(CCN(c5cc(NCCCCC(=O)N6CCN(c7ccc8c(c7)C(=O)N(C7CCC(=O)NC7=O)C8=O)CC6)ncn5)CC4)C3)cc2F)CC1 (centres unmarked) [Compound 4a]
[c] CC1(C)CCN(Cc2cc(F)c(N3CC(=O)NC4(CCN(c5cc(NCCCCCCC(=O)N6CCN(c7ccc8c(c7)CN(C7CCC(=O)NC7=O)C8=O)CC6)ncn5)CC4)C3)cc2F)CC1 (centres unmarked) [Compound 4g]
Falling order of % reduction in MV4-11 cells, 0.3 µM, METTL14, please. Dear reader, please state the labels in the requested order.
a, b, c
